Entries and their measured log(10^6/IC50) follow.
- SYSTEM: Matrix metalloproteinase-9 (Homo sapiens) (UniProt P14780)
- Sequence (P14780 whole entry): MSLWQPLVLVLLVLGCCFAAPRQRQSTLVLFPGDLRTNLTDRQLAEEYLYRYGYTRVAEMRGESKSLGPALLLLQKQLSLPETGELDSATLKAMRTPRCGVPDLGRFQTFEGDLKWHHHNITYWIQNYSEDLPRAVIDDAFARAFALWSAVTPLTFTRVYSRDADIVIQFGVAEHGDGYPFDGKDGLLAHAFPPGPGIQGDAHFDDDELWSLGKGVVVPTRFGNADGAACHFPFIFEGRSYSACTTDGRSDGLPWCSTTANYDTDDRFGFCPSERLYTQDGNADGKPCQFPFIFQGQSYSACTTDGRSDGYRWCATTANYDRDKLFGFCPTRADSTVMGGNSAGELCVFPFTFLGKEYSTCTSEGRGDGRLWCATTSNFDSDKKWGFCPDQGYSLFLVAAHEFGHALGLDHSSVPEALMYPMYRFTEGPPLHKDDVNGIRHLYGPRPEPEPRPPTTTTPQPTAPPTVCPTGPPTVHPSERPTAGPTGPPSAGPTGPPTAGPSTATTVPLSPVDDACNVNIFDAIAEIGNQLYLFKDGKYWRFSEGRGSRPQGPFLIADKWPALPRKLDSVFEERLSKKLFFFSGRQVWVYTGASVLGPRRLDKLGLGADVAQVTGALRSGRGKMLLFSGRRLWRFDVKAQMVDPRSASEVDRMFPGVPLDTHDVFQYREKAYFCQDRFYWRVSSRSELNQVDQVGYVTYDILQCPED
- MEASUREMENT PROTOCOL: Inhibition of MMP9
I'd appreciate a reply containing only the number, no unit.

{"columns": ["COMPOUND", "SYSTEM", "RECORDED NUMBER"],
 "data": [
  ["COc1ccc(S(=O)(=O)C2(C(=O)NO)CCN(Cc3ccccc3)CC2)cc1", "Matrix metalloproteinase-9 (Homo sapiens) (UniProt P14780)", 5]
]}

GET /values?readout=log(10^6/IC50)&system=Matrix metalloproteinase-9 (Homo sapiens) (UniProt P14780)&item= COc1ccc(S(=O)(=O)C(C)(C/C=C/c2ccccc2)C(=O)NO)cc1 (centres undefined)
4.8

GET /values?readout=log(10^6/IC50)&system=Matrix metalloproteinase-9 (Homo sapiens) (UniProt P14780)&item= COc1ccc(S(=O)(=O)C2(C(=O)NO)CCN(Cc3ccc(C)cc3)CC2)cc1
4.77

GET /values?readout=log(10^6/IC50)&system=Matrix metalloproteinase-9 (Homo sapiens) (UniProt P14780)&item= CCN1CCC(C(=O)NO)(S(=O)(=O)c2ccc(Oc3ccc(Cl)cc3)cc2)CC1
6

GET /values?readout=log(10^6/IC50)&system=Matrix metalloproteinase-9 (Homo sapiens) (UniProt P14780)&item= CCCCOc1ccc(S(=O)(=O)C2(C(=O)NO)CCN(CC)CC2)cc1
4.37

GET /values?readout=log(10^6/IC50)&system=Matrix metalloproteinase-9 (Homo sapiens) (UniProt P14780)&item= CCCCOc1ccc(S(=O)(=O)C2(C(=O)NO)CCN(CCOc3ccccc3)CC2)cc1
5.3

GET /values?readout=log(10^6/IC50)&system=Matrix metalloproteinase-9 (Homo sapiens) (UniProt P14780)&item= CCN(CC)CCOc1ccc(C[C@](C)(C(=O)NO)S(=O)(=O)c2ccc(-c3ccco3)cc2)cc1
5.4

GET /values?readout=log(10^6/IC50)&system=Matrix metalloproteinase-9 (Homo sapiens) (UniProt P14780)&item= COc1ccc(CCN2CCC(C(=O)NO)(S(=O)(=O)c3ccc(OC)cc3)CC2)cc1
4.47

GET /values?readout=log(10^6/IC50)&system=Matrix metalloproteinase-9 (Homo sapiens) (UniProt P14780)&item= O=C(NO)C1(S(=O)(=O)c2ccc(OCc3ccccc3)cc2)CCN(Cc2ccccc2)CC1
5.52

###

- SYSTEM: Matrix metalloproteinase-9 (Homo sapiens)
- MEASUREMENT PROTOCOL: Inhibition of MMP9
PROPERTY NAME: log(10^6/IC50)

For the compound shown here, CCCCOc1ccc(S(=O)(=O)C2(C(=O)NO)CCN(Cc3cccc(OC)c3)CC2)cc1 , give the reported log(10^6/IC50).
5.52

For the compound shown here, CCCCOc1ccc(S(=O)(=O)C2(C(=O)NO)CCN(C)CC2)cc1 , give the reported log(10^6/IC50).
5

For the compound shown here, C#CC[C@](Cc1cccnc1)(C(=O)NO)S(=O)(=O)c1ccc(OC)cc1 , give the reported log(10^6/IC50).
4.08

For the compound shown here, CCCCOc1ccc(S(=O)(=O)C2(C(=O)NO)CCN(CCCC)CC2)cc1 , give the reported log(10^6/IC50).
4.55

###

Reported log(10^6/IC50), Collagenase 3 (Homo sapiens) (UniProt P45452).
I'd appreciate a reply containing only the number, no unit.

A selection of reference data follows.
{"columns": ["MOLECULE", "log(10^6/IC50)"],
 "data": [
  ["C=C(C)[C@@](C)(C(=O)NO)S(=O)(=O)c1ccc(OC)cc1", 4.85],
  ["CCN1CCC(C(=O)NO)(S(=O)(=O)c2ccc(Oc3ccc(Cl)cc3)cc2)CC1", 6],
  ["O=C(NO)C1(S(=O)(=O)c2ccc(Oc3ccc(Cl)cc3)cc2)CCNCC1", 5.7],
  ["O=C(NO)C1(S(=O)(=O)c2ccc(Oc3ccc(Cl)cc3)cc2)CCN(Cc2ccccc2)CC1", 6],
  ["CCC(CC)COc1ccc(S(=O)(=O)C2(C(=O)NO)CCN(Cc3ccccc3)CC2)cc1", 5.3]
]}

GET /values?readout=log(10^6/IC50)&system=Collagenase 3 (Homo sapiens) (UniProt P45452)&item= COc1ccc(S(=O)(=O)C(C)(C/C=C/c2ccccc2)C(=O)NO)cc1 (configuration not stated)
4.92

GET /values?readout=log(10^6/IC50)&system=Collagenase 3 (Homo sapiens) (UniProt P45452)&item= COc1ccc(S(=O)(=O)C2(C(=O)NO)CCN(Cc3ccccc3)CC2)cc1
5.7

GET /values?readout=log(10^6/IC50)&system=Collagenase 3 (Homo sapiens) (UniProt P45452)&item= COc1ccc(S(=O)(=O)C2(C(=O)NO)CCN(Cc3ccc(-c4cccs4)cc3)CC2)cc1
5.52

GET /values?readout=log(10^6/IC50)&system=Collagenase 3 (Homo sapiens) (UniProt P45452)&item= COc1ccc(S(=O)(=O)C2(C(=O)NO)CCN(Cc3ccc(F)cc3)CC2)cc1
5.7

GET /values?readout=log(10^6/IC50)&system=Collagenase 3 (Homo sapiens) (UniProt P45452)&item= CCCCOc1ccc(S(=O)(=O)C2(C(=O)NO)CCN(CCCC)CC2)cc1
5.7

GET /values?readout=log(10^6/IC50)&system=Collagenase 3 (Homo sapiens) (UniProt P45452)&item= COc1ccc(S(=O)(=O)C2(C(=O)NO)CCN(CCCOc3ccccc3)CC2)cc1
5.4

GET /values?readout=log(10^6/IC50)&system=Collagenase 3 (Homo sapiens) (UniProt P45452)&item= COc1ccc(CCN2CCC(C(=O)NO)(S(=O)(=O)c3ccc(OC)cc3)CC2)cc1
5.7

GET /values?readout=log(10^6/IC50)&system=Collagenase 3 (Homo sapiens) (UniProt P45452)&item= C=C(C)N1CCC(C(=O)NO)(S(=O)(=O)c2ccc(OC)cc2)CC1
5.15

GET /values?readout=log(10^6/IC50)&system=Collagenase 3 (Homo sapiens) (UniProt P45452)&item= CCN(CC)CCOc1ccc(CC(C)(C(=O)NO)S(=O)(=O)c2ccc(OC)cc2)cc1 (single isomer, unassigned)
4.82

GET /values?readout=log(10^6/IC50)&system=Collagenase 3 (Homo sapiens) (UniProt P45452)&item= COc1ccc(S(=O)(=O)C2(C(=O)NO)CCN(Cc3cccc(OC)c3)CC2)cc1
5.7

GET /values?readout=log(10^6/IC50)&system=Collagenase 3 (Homo sapiens) (UniProt P45452)&item= CCCCOc1ccc(S(=O)(=O)C2(C(=O)NO)CCN(Cc3ccc(Cl)c(Cl)c3)CC2)cc1
5.3

GET /values?readout=log(10^6/IC50)&system=Collagenase 3 (Homo sapiens) (UniProt P45452)&item= COc1ccc(S(=O)(=O)C2(C(=O)NO)CCN(C(C)(C)C)CC2)cc1
3.83

GET /values?readout=log(10^6/IC50)&system=Collagenase 3 (Homo sapiens) (UniProt P45452)&item= CCCCOc1ccc(S(=O)(=O)C2(C(=O)NO)CCN(C)CC2)cc1
5.7

GET /values?readout=log(10^6/IC50)&system=Collagenase 3 (Homo sapiens) (UniProt P45452)&item= COc1ccc(S(=O)(=O)C2(C(=O)NO)CCN(Cc3ccc(Cl)c(Cl)c3)CC2)cc1
5.7

GET /values?readout=log(10^6/IC50)&system=Collagenase 3 (Homo sapiens) (UniProt P45452)&item= CCCCOc1ccc(S(=O)(=O)C2(C(=O)NO)CCN(CC)CC2)cc1
5.7

GET /values?readout=log(10^6/IC50)&system=Collagenase 3 (Homo sapiens) (UniProt P45452)&item= COc1ccc(S(=O)(=O)[C@@](C)(CC2CCCCC2)C(=O)NO)cc1
4.62

GET /values?readout=log(10^6/IC50)&system=Collagenase 3 (Homo sapiens) (UniProt P45452)&item= C#CC[C@](Cc1cccnc1)(C(=O)NO)S(=O)(=O)c1ccc(OC)cc1
4.49

GET /values?readout=log(10^6/IC50)&system=Collagenase 3 (Homo sapiens) (UniProt P45452)&item= COc1ccc(S(=O)(=O)C2(C(=O)NO)CCN(C(C)C)CC2)cc1
4.47

GET /values?readout=log(10^6/IC50)&system=Collagenase 3 (Homo sapiens) (UniProt P45452)&item= COc1ccc(S(=O)(=O)C2(C(=O)NO)CCN(Cc3ccc(-c4ccccc4)cc3)CC2)cc1
5.52

GET /values?readout=log(10^6/IC50)&system=Collagenase 3 (Homo sapiens) (UniProt P45452)&item= COc1ccc(S(=O)(=O)C2(C(=O)NO)CCN(Cc3ccc(C)cc3)CC2)cc1
5.7

GET /values?readout=log(10^6/IC50)&system=Collagenase 3 (Homo sapiens) (UniProt P45452)&item= COc1ccc(S(=O)(=O)C2(C(=O)NO)CCN(CCOc3ccccc3)CC2)cc1
5.52

GET /values?readout=log(10^6/IC50)&system=Collagenase 3 (Homo sapiens) (UniProt P45452)&item= COc1ccc(S(=O)(=O)[C@](CCC(C)C)(Cc2cccnc2)C(=O)NO)cc1
4.05

Origin of the recorded values: ChEMBL document CHEMBL1140637
